targetDesc: T1, soluble human FcRn (human, UniProt P55899 24-297; P61769 21-119, biotinylated (Sulfo-NHS-LC-Biotin) in the ELISA; amine-coupled to CM5 chip in SPR)
T1 construct: also called shFcRn; biotinylated shFcRn
T1 sequence (P55899 24-297 limits assumed, chain 1 of 2): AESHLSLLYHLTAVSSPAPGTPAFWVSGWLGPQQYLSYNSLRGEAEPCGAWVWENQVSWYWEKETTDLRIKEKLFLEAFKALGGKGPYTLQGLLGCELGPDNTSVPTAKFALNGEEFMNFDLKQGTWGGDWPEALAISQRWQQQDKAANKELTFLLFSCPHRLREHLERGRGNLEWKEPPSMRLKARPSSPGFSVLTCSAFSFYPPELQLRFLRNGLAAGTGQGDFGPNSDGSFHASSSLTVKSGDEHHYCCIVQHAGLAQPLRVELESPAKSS
T1 sequence (P61769 21-119 limits assumed, chain 2 of 2): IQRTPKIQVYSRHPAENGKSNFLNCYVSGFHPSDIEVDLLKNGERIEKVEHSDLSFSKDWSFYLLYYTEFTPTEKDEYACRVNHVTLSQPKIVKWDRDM
assay: SPR, pH 6
Bridge positions count the residues as written; N and C are the ends. Square brackets hold non-standard residues; d marks the D form. Ends that are not written are not given here. Pen = CC(C)(S)[C@H](N)C(=O)O
Listed here are binders together with their documented Kd.

binder | valueUnits | Kd
RFXTGHFGGWYPC (Pen at 3; disulfide; C-terminal amide) [Peptide No. 237] | nM | 140
QRF[Pen]TGHFGGIYPCNGP-NH2 (disulfide 4-14; N-terminus assumed; SMILES CC[C@H](C)[C@@H]1NC(=O)CNC(=O)CNC(=O)[C@H](Cc2ccccc2)NC(=O)[C@H](Cc2c[nH]cn2)NC(=O)CNC(=O)[C@H]([C@@H](C)O)NC(=O)[C@@H](NC(=O)[C@H](Cc2ccccc2)NC(=O)[C@H](CCCNC(=N)N)NC(=O)[C@@H](N)CCC(N)=O)C(C)(C)SSC[C@@H](C(=O)N[C@@H](CC(N)=O)C(=O)NCC(=O)N2CCC[C@H]2C(N)=O)NC(=O)[C@@H]2CCCN2C(=O)[C@H](Cc2ccc(O)cc2)NC1=O) [Peptide No. 101] | nM | 340
QRF[Pen]TGHFGGFYPCNGP-NH2 (disulfide 4-14; N-terminus assumed; SMILES C[C@@H](O)[C@@H]1NC(=O)[C@@H](NC(=O)[C@H](Cc2ccccc2)NC(=O)[C@H](CCCNC(=N)N)NC(=O)[C@@H](N)CCC(N)=O)C(C)(C)SSC[C@@H](C(=O)N[C@@H](CC(N)=O)C(=O)NCC(=O)N2CCC[C@H]2C(N)=O)NC(=O)[C@@H]2CCCN2C(=O)[C@H](Cc2ccc(O)cc2)NC(=O)[C@H](Cc2ccccc2)NC(=O)CNC(=O)CNC(=O)[C@H](Cc2ccccc2)NC(=O)[C@H](Cc2c[nH]cn2)NC(=O)CNC1=O) [Peptide No. 115] | nM | 400
QRFXTGHFGGHYPCNGP (Pen at 4; disulfide; C-terminal amide) [Peptide No. 84] | nM | 380
QRFXTGHFGGLYPCNGP (Pen (L-penicillamine) at 4; disulfide; C-terminal amide) [Peptide No. 32] | nM | 250
